Tested on: Human immunodeficiency virus 1
Assay: Antiviral activity against wild-type HIV1 3B infected in human MT4 cells assessed as protection of cells from virus-induced cytopathic after 5 days by MTT assay
Type: functional, organism-based
Details: Human immunodeficiency virus 1, 3B, MT4, 120 h
Please note: EC50 exactly at 200 nM is Not fulfilled. Only values below 200 nM get Fulfilled.

Does CC(C)n1cc(C(=O)O)c(=O)c2ccc(Oc3ccnc(Nc4ccc(C#N)cc4)n3)cc21 have EC50 strictly under 200 nM?
Not fulfilled

Does CCCCn1cc(C(=O)O)c(=O)c2ccc(Oc3ccnc(Nc4ccc(C#N)cc4)n3)cc21 have EC50 strictly under 200 nM?
Not fulfilled

Does CCCn1cc(C(=O)O)c(=O)c2ccc(Nc3ccnc(Nc4ccc(C#N)cc4)n3)cc21 have EC50 strictly under 200 nM?
Not fulfilled

Does CC(C)Cn1cc(C(=O)O)c(=O)c2ccc(Oc3ccnc(Nc4ccc(C#N)cc4)n3)cc21 have EC50 strictly under 200 nM?
Not fulfilled

Does Cc1cc(C#N)cc(C)c1Oc1nc(Nc2ccc(C#N)cc2)nc(N)c1Br [ETRAVIRINE] have EC50 strictly under 200 nM?
Fulfilled

Does CCn1cc(C(=O)O)c(=O)c2ccc(Oc3ccnc(Nc4ccc(C#N)cc4)n3)cc21 have EC50 strictly under 200 nM?
Not fulfilled

Does COc1cc2c(cc1Cc1cccc(Cl)c1F)c(=O)c(C(=O)O)cn2[C@H](CO)C(C)C have EC50 strictly under 200 nM?
Fulfilled

Does CCC(C)n1cc(C(=O)O)c(=O)c2ccc(Oc3ccnc(Nc4ccc(C#N)cc4)n3)cc21 (stereo not drawn) have EC50 strictly under 200 nM?
Not fulfilled

Does CCCCn1cc(C(=O)O)c(=O)c2ccc(Nc3ccnc(Nc4ccc(C#N)cc4)n3)cc21 have EC50 strictly under 200 nM?
Not fulfilled

Does N#Cc1ccc(Nc2nccc(Oc3ccc4c(=O)c(C(=O)O)cn(C5CCCC5)c4c3)n2)cc1 have EC50 strictly under 200 nM?
Not fulfilled

Does Cc1cn([C@H]2C[C@H](N=[N+]=[N-])[C@@H](CO)O2)c(=O)[nH]c1=O [ZIDOVUDINE] have EC50 strictly under 200 nM?
Fulfilled

Does CC(C)n1cc(C(=O)O)c(=O)c2ccc(Nc3ccnc(Nc4ccc(C#N)cc4)n3)cc21 have EC50 strictly under 200 nM?
Not fulfilled

Does CCn1cc(C(=O)O)c(=O)c2ccc(Nc3ccnc(Nc4ccc(C#N)cc4)n3)cc21 have EC50 strictly under 200 nM?
Not fulfilled

Does N#Cc1ccc(Nc2nccc(Nc3ccc4c(=O)c(C(=O)O)cn(C5CCCCC5)c4c3)n2)cc1 have EC50 strictly under 200 nM?
Not fulfilled

Does N#Cc1ccc(Nc2nccc(Oc3ccc4c(=O)c(C(=O)O)cn(C5CCCCC5)c4c3)n2)cc1 have EC50 strictly under 200 nM?
Not fulfilled

Does CCCn1cc(C(=O)O)c(=O)c2ccc(Oc3ccnc(Nc4ccc(C#N)cc4)n3)cc21 have EC50 strictly under 200 nM?
Not fulfilled

Does N#Cc1ccc(Nc2nccc(Oc3ccc4c(=O)c(C(=O)O)cn(C5CC5)c4c3)n2)cc1 have EC50 strictly under 200 nM?
Not fulfilled

Does Cc1ccnc2c1NC(=O)c1cccnc1N2C1CC1 [NEVIRAPINE] have EC50 strictly under 200 nM?
Not fulfilled

###

Molecular target: Human immunodeficiency virus type 1 integrase (Human immunodeficiency virus 1, UniProt Q7ZJM1)
Sequence (Q7ZJM1 whole entry): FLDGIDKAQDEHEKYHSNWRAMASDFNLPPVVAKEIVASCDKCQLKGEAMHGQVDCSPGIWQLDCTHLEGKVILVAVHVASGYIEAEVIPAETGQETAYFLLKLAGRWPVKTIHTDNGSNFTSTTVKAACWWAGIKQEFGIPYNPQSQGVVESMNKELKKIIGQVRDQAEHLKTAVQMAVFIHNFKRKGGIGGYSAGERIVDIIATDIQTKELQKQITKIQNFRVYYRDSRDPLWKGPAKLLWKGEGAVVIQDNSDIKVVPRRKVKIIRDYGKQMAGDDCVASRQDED
MEASURED_PROPERTY: pIC50
Scale note: pIC50 = -log10(concentration in M).

Notebook: CCCCn1cc(C(=O)O)c(=O)c2ccc(Oc3ccnc(Nc4ccc(C#N)cc4)n3)cc21 , pIC50 read as 4.49

###

Test: Selectivity index, ratio of CC50 for mock-infected human MT4 cells to EC50 for HIV1 3B infected in human MT4 cells
Type: toxicity, cell-based
Settings: mock-infected (CC50) and HIV1 3B infected (EC50)
MEASURED_PROPERTY: selectivity ratio

Notebook: CC(C)n1cc(C(=O)O)c(=O)c2ccc(Oc3ccnc(Nc4ccc(C#N)cc4)n3)cc21 , selectivity ratio read as 1

Notebook: CCCCn1cc(C(=O)O)c(=O)c2ccc(Nc3ccnc(Nc4ccc(C#N)cc4)n3)cc21 , selectivity ratio read as < 1

Notebook: CC(C)n1cc(C(=O)O)c(=O)c2ccc(Nc3ccnc(Nc4ccc(C#N)cc4)n3)cc21 , selectivity ratio read as < 1

Notebook: N#Cc1ccc(Nc2nccc(Oc3ccc4c(=O)c(C(=O)O)cn(C5CCCCC5)c4c3)n2)cc1 , selectivity ratio read as < 1

Notebook: CC(C)Cn1cc(C(=O)O)c(=O)c2ccc(Oc3ccnc(Nc4ccc(C#N)cc4)n3)cc21 , selectivity ratio read as > 237

Notebook: CCC(C)n1cc(C(=O)O)c(=O)c2ccc(Oc3ccnc(Nc4ccc(C#N)cc4)n3)cc21 (stereo not given) , selectivity ratio read as 1

Notebook: CCn1cc(C(=O)O)c(=O)c2ccc(Nc3ccnc(Nc4ccc(C#N)cc4)n3)cc21 , selectivity ratio read as < 1

Notebook: CCCn1cc(C(=O)O)c(=O)c2ccc(Nc3ccnc(Nc4ccc(C#N)cc4)n3)cc21 , selectivity ratio read as < 1

Notebook: CCCCn1cc(C(=O)O)c(=O)c2ccc(Oc3ccnc(Nc4ccc(C#N)cc4)n3)cc21 , selectivity ratio read as ≥ 604

Notebook: CCn1cc(C(=O)O)c(=O)c2ccc(Oc3ccnc(Nc4ccc(C#N)cc4)n3)cc21 , selectivity ratio read as 880

Notebook: N#Cc1ccc(Nc2nccc(Nc3ccc4c(=O)c(C(=O)O)cn(C5CCCCC5)c4c3)n2)cc1 , selectivity ratio read as < 1

Notebook: N#Cc1ccc(Nc2nccc(Oc3ccc4c(=O)c(C(=O)O)cn(C5CC5)c4c3)n2)cc1 , selectivity ratio read as ≤ 1

Notebook: Cc1cn([C@H]2C[C@H](N=[N+]=[N-])[C@@H](CO)O2)c(=O)[nH]c1=O [ZIDOVUDINE] , selectivity ratio read as 16800

Notebook: N#Cc1ccc(Nc2nccc(Oc3ccc4c(=O)c(C(=O)O)cn(C5CCCC5)c4c3)n2)cc1 , selectivity ratio read as 5

Notebook: CCCn1cc(C(=O)O)c(=O)c2ccc(Oc3ccnc(Nc4ccc(C#N)cc4)n3)cc21 , selectivity ratio read as ≤ 569

###

Assay: Cytotoxicity against mock-infected human MT4 cells after 5 days by MTT assay
Format: cell-based
Would you mind telling me the reported CC50 at 120 h of each entry?
// return numeric value only (unit: µM, not printed)

Notebook: CCCn1cc(C(=O)O)c(=O)c2ccc(Oc3ccnc(Nc4ccc(C#N)cc4)n3)cc21 , CC50 at 120 h read as 245

Notebook: N#Cc1ccc(Nc2nccc(Nc3ccc4c(=O)c(C(=O)O)cn(C5CCCCC5)c4c3)n2)cc1 , CC50 at 120 h read as 2.18

Notebook: CC(C)n1cc(C(=O)O)c(=O)c2ccc(Nc3ccnc(Nc4ccc(C#N)cc4)n3)cc21 , CC50 at 120 h read as 10.9

Notebook: Cc1cc(C#N)cc(C)c1Oc1nc(Nc2ccc(C#N)cc2)nc(N)c1Br , CC50 at 120 h read as 14.2

Notebook: CCCCn1cc(C(=O)O)c(=O)c2ccc(Nc3ccnc(Nc4ccc(C#N)cc4)n3)cc21 , CC50 at 120 h read as 13.6

###

Tested on: Human immunodeficiency virus 1
Test: Antiviral activity against HIV1 harboring K103N/Y181C double mutant infected in human MT4 cells assessed as protection of cells from virus-induced cytopathic after 5 days by MTT assay
Format: functional, organism-based
Conditions: Human immunodeficiency virus 1, MT4, 120 h
pEC50: −log10 of the molar value.
MEASURED_PROPERTY: pEC50

Notebook: Cc1cc(C#N)cc(C)c1Oc1nc(Nc2ccc(C#N)cc2)nc(N)c1Br , pEC50 read as 7.85

Notebook: O=C1Nc2ccc(Cl)cc2[C@@](C#CC2CC2)(C(F)(F)F)O1 , pEC50 read as 6.85

Notebook: Cc1cn([C@H]2C[C@H](N=[N+]=[N-])[C@@H](CO)O2)c(=O)[nH]c1=O , pEC50 read as 8.28

Notebook: CCC(C)n1cc(C(=O)O)c(=O)c2ccc(Oc3ccnc(Nc4ccc(C#N)cc4)n3)cc21 (centres undefined) , pEC50 read as < 3.56

Notebook: N#Cc1ccc(Nc2nccc(Oc3ccc4c(=O)c(C(=O)O)cn(C5CC5)c4c3)n2)cc1 , pEC50 read as < 3.65

Notebook: N#Cc1ccc(Nc2nccc(Oc3ccc4c(=O)c(C(=O)O)cn(C5CCCCC5)c4c3)n2)cc1 , pEC50 read as < 5.49

Notebook: CC(C)n1cc(C(=O)O)c(=O)c2ccc(Nc3ccnc(Nc4ccc(C#N)cc4)n3)cc21 , pEC50 read as < 4.96

Notebook: CCn1cc(C(=O)O)c(=O)c2ccc(Nc3ccnc(Nc4ccc(C#N)cc4)n3)cc21 , pEC50 read as < 3.91

Notebook: CCCn1cc(C(=O)O)c(=O)c2ccc(Nc3ccnc(Nc4ccc(C#N)cc4)n3)cc21 , pEC50 read as < 3.72

Notebook: CCCCn1cc(C(=O)O)c(=O)c2ccc(Nc3ccnc(Nc4ccc(C#N)cc4)n3)cc21 , pEC50 read as < 4.87

Notebook: COc1cc2c(cc1Cc1cccc(Cl)c1F)c(=O)c(C(=O)O)cn2[C@H](CO)C(C)C , pEC50 read as 8.66

Notebook: N#Cc1ccc(Nc2nccc(Oc3ccc4c(=O)c(C(=O)O)cn(C5CCCC5)c4c3)n2)cc1 , pEC50 read as < 5.30

Notebook: Cc1ccnc2c1NC(=O)c1cccnc1N2C1CC1 , pEC50 read as ≤ 4.96

Notebook: CCCn1cc(C(=O)O)c(=O)c2ccc(Oc3ccnc(Nc4ccc(C#N)cc4)n3)cc21 , pEC50 read as < 3.61
